Let's look at some compounds and their measured DC50.
# MEASURED ON: Nanoluciferase-BRD9 fusion protein (Homo sapiens (Human))
# Sequence (Q9H8M2 whole entry, the tested form may be a part): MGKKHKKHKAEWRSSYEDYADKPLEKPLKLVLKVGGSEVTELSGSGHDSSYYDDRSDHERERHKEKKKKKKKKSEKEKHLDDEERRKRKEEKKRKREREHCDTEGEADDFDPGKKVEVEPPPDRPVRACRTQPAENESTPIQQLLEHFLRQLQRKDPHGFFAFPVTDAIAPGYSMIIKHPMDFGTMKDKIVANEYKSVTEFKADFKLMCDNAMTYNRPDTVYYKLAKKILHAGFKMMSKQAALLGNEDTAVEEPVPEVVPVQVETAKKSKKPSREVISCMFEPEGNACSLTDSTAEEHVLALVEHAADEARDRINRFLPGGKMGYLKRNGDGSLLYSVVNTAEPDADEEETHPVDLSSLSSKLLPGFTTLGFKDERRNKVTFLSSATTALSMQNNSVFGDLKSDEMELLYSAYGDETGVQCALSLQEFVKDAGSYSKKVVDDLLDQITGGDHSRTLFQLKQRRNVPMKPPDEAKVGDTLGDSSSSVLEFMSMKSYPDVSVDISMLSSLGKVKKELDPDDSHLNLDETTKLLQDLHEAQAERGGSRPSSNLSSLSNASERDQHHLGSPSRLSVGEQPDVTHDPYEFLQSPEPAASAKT
# PROTOCOL NOTES: SYO1 BRD9 NanoLuc degradation assay
# Type: cell-based
# TEST PARAMETERS: Table 5B; SYO-1 cells expressing 3×FLAG-NLuc-BRD9, 6 hours; read-out: SYO1 BRD9-NanoLuc degradation IC50
MEASURED QUANTITY: DC50

{"COMPOUND": "COc1cc(-c2cc(C)c(=O)n(C)c2)cc(OC)c1CN1Cc2cc3c(cc2C1)C(=O)N(C1CCC(=O)NC1=O)C3=O (stereo not drawn)", "RESULT": "< 10 nM"}
{"COMPOUND": "COc1cc(-c2cn(C)c(=O)c3cnccc23)cc(OC)c1CN(C)C(=O)CCCCN1CC2(CC(Oc3ccc4c(c3)C(=O)N(C3CCC(=O)NC3=O)C4=O)C2)C1 (stereo not drawn)", "RESULT": "< 10 nM"}
{"COMPOUND": "COc1cc(-c2cc(C)c(=O)n(C)c2)cc(OC)c1CN1CCC2C(C1)CN2c1ccc2c(c1)C(=O)N(C1CCC(=O)NC1=O)C2=O (stereo not drawn)", "RESULT": "< 10 nM"}
